Data provenance: ChEMBL document CHEMBL3621068

# Tested on: Staphylococcus aureus
# experimental.protocol: Antibacterial activity against Staphylococcus aureus ATCC 25923 after 24 hrs by micro broth dilution assay
# Type: functional
# run.parameters: ATCC 25923, 24 h
result.type: MIC

Param item = O=c1c2ccc(F)cc2ncn1CCCCBr ; retrieve measured MIC.
> 1710 µM

Param item = O=c1c2ccc(Cl)cc2ncn1CCCCCCCCCCBr ; retrieve measured MIC.
> 1280 µM

Param item = O=c1c2ccc(F)cc2ncn1CCCCCBr ; retrieve measured MIC.
> 1630 µM

More entries:
Param item = O=c1c2ccc(F)cc2ncn1CCCCCCBr ; retrieve measured MIC.
> 1560 µM

Param item = O=c1c2ccc(F)cc2ncn1CCCCCCCCCCBr ; retrieve measured MIC.
> 1340 µM

Param item = O=c1c2ccc(Cl)cc2ncn1CCBr ; retrieve measured MIC.
> 1780 µM

Param item = O=c1c2ccc(Cl)cc2ncn1CCCCCCBr ; retrieve measured MIC.
> 1490 µM

Param item = O=c1c2ccc(Cl)cc2ncn1CCCCBr ; retrieve measured MIC.
> 1620 µM

Param item = O=c1c2ccc(F)cc2ncn1CCn1cncn1 ; retrieve measured MIC.
990 µM

Param item = Cc1ncc([N+](=O)[O-])n1CCCCCCn1cnc2cc(F)ccc2c1=O ; retrieve measured MIC.
40 µM

Param item = O=c1c2ccc(F)cc2ncn1CCn1ccnc1 ; retrieve measured MIC.
> 1980 µM

----------
# Tested on: Bacillus sp.
# experimental.protocol: Antibacterial activity against Bacillus proteus ATCC 13315 after 24 hrs by micro broth dilution assay
# Type: functional
# run.parameters: Bacillus sp. (in: firmicutes), ATCC 13315, 24 h
List of MIC values.
Provide the reading as a plain figure in µM.

Param item = O=c1c2ccc(Cl)cc2ncn1CCn1ccnc1 ; retrieve measured MIC.
1860

Param item = O=c1c2ccc(F)cc2ncn1CCn1cncn1 ; retrieve measured MIC.
990

Param item = O=c1c2ccc(Cl)cc2ncn1CCCCBr ; retrieve measured MIC.
410

Param item = O=c1c2ccc(Cl)cc2ncn1CCCCCCBr ; retrieve measured MIC.
740

More entries:
Param item = O=c1c2ccc(F)cc2ncn1CCCCn1cnc([N+](=O)[O-])c1 ; retrieve measured MIC.
390

Param item = Cc1ncc([N+](=O)[O-])n1CCCCn1cnc2cc(Cl)ccc2c1=O ; retrieve measured MIC.
20

----------
List of MIC values.
# Test system: Candida
# experimental.protocol: Antifungal activity against Candida mycoderma ATCC 9888 after 24 hrs by micro broth dilution assay
# Type: functional
# run.parameters: ATCC 9888, 24 h

Param item = O=c1c2ccc(F)cc2ncn1CCn1ccnc1 ; retrieve measured MIC.
> 1980 µM

Param item = O=c1c2ccc(F)cc2ncn1CCBr ; retrieve measured MIC.
> 1890 µM

Param item = O=c1c2ccc(F)cc2ncn1CCCCCCBr ; retrieve measured MIC.
> 1560 µM

----------
# experimental.protocol: Antibacterial activity against Eberthella typhosa ATCC 14028 after 24 hrs by micro broth dilution assay
# Format: functional
# run.parameters: ATCC 14028, 24 h
result.type: MIC

Param item = O=c1c2ccc(Cl)cc2ncn1CCCCCCCCCCBr ; retrieve measured MIC.
> 1280 µM

Param item = O=c1c2ccc(Cl)cc2ncn1CCBr ; retrieve measured MIC.
> 1780 µM

Param item = O=c1c2ccc(F)cc2ncn1CCn1ccnc1 ; retrieve measured MIC.
> 1980 µM

Param item = O=c1c2ccc(Cl)cc2ncn1CCCCCCBr ; retrieve measured MIC.
> 1490 µM

Param item = O=c1c2ccc(Cl)cc2ncn1CCn1ccnc1 ; retrieve measured MIC.
> 1860 µM

Okay, now this compound:
Param item = O=c1c2ccc(Cl)cc2ncn1CCCCCBr ; retrieve measured MIC.
> 1550 µM
